The origin of these recorded values is PubChem BioAssay (NCI).

system: OVCAR-5 ovarian; experiment: NCI-60 one-dose screen, 48 h; conditions: 10 µM unless noted
The panel holds about 83,000 compounds, 20% with a hit somewhere; the sample as a whole holds those more often. Calls of active or inactive are those of the source. The calls were made as follows: active = growth percent below 10; inactive = the rest.
Classes to choose from: Yes = active, No = inactive

# Molecule, Class Assignment
rows = [
    ("Cc1cc(C)c2c(c1)N(C)c1ncnc(-n3cnc4cc(C)ccc43)c1CC2C (centres undefined)", "No"),
    ("C#CCOc1cccc(Nc2ncnc3ccc(NC(=O)C=C)cc23)c1", "No"),
    ("CCN(CC)Cc1cc(C=C2C(=O)NC(=S)NC2=O)cc(OC)c1O", "No"),
    ("CCN(C)S(=O)(=O)Nc1cccc(Nc2ncnc3cc(NC(=O)CCl)ccc23)c1Cl", "Yes"),
]

Enquiry: I would be grateful if you could indicate the recorded call for `O=C1Nc2ccccc2/C1=C/c1nc2ccccc2c(=O)[nH]1` .
Return: No

Enquiry: Record request — test call for `O=c1c2cccc3c(N4CCCC4)ccc(c32)c2nc3ccccc3n12`
Return: No

Enquiry: Returns: the outcome recorded for `COc1ccccc1CNc1c2ccccc2nc2ccccc12` in this assay.
Return: No

Enquiry: Given N#CC1=C(N)Oc2c(ccc3ccccc23)C1c1ccccc1 (centres undefined) , state the outcome it received in this test.
Return: No

Enquiry: Outcome logged for `O=C(N/N=C/c1c(Cl)cccc1Cl)c1cccnc1Nc1cccc(C(F)(F)F)c1` in this assay:
Return: No
